- METHOD NOTES: in vivo
- EXPERIMENTAL CONTEXT: sheep, iv, 0.015 mg/kg, morphine-6-glucuronide concentration (plasma)
PARAMETER MEASURED: concentration at 0.5 h (µg/mL)
Answer format: numeric, µg/mL implied, no suffix.

Query: Record request: concentration at 0.5 h value, item CN1CC[C@]23c4c5ccc(O)c4O[C@H]2[C@@H](O[C@@H]2O[C@H](C(=O)O)[C@@H](O)[C@H](O)[C@H]2O)C=C[C@H]3[C@H]1C5 [morphine-6-glucuronide]
Response: 0.0225

====

- METHOD NOTES: Pharmacokinetic parameters after intravenous administration to sheep
- EXPERIMENTAL CONTEXT: sheep, plasma, iv, 0.015 mg/kg, Apparent Volume of Distibution, i.v. 0.015 mg/kg; individual sheep NF, OF, PF
PARAMETER MEASURED: Vd (L/kg)
Field format: number, assumed L/kg, no unit text.

Query: I have this molecule here, CN1CC[C@]23c4c5ccc(O)c4O[C@H]2[C@@H](O[C@@H]2O[C@H](C(=O)O)[C@@H](O)[C@H](O)[C@H]2O)C=C[C@H]3[C@H]1C5 [morphine-6-glucuronide] , and I need its recorded Vd.
Response: 0.58
